system: human ether-à-go-go-related gene (hERG) potassium channel (human, UniProt Q12809);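 further: peak tail current of the secondary pulse compared with the same well before compound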
Sequence (Q12809 whole entry, looked up): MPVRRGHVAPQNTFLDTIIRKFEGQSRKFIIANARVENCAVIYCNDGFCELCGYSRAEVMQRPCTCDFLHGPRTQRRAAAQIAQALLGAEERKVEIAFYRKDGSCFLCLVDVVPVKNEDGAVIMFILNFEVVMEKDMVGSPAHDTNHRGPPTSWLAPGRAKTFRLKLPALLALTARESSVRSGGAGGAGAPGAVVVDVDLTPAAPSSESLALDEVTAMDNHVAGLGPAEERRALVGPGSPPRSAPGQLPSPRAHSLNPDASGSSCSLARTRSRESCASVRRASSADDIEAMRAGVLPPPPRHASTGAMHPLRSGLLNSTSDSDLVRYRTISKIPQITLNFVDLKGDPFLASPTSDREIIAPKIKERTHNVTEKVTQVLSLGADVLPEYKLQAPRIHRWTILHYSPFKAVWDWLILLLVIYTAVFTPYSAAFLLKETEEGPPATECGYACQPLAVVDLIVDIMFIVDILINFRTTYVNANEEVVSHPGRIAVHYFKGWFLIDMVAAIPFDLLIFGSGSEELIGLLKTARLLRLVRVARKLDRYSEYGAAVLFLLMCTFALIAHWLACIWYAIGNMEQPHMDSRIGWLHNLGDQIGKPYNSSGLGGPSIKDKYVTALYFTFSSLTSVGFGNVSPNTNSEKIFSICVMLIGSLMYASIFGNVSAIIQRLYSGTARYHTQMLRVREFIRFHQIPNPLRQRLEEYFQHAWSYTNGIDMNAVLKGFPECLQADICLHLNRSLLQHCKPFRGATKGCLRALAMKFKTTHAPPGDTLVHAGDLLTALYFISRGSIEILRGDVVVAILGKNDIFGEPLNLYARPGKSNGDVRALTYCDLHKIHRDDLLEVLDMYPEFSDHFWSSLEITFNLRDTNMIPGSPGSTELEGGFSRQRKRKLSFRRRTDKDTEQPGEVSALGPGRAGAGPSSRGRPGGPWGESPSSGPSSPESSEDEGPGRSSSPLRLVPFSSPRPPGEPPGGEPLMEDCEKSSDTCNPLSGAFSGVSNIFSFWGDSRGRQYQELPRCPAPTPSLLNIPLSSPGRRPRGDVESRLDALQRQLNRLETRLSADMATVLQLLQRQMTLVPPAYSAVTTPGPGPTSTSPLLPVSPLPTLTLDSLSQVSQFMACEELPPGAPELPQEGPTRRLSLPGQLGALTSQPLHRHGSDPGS
assayDetails: primary screen, population patch clamp on CHO cells stably expressing hERG; higher = less effect of the substance
Among all 310,000 compounds or so, about 14,000 (4.5%) showed an effect of 50% or more. Effects have a minus sign here. For the sample, strong results were picked, then their nearest neighbours and some compounds at random.
observable: hERG current change (%, negative = inhibition) at 10uM (%)
The reply should be a number in %, with the unit left off.

The recorded hERG current change (%, negative = inhibition) at 10uM for `O=Cc1cn(CCC(=O)O)nc1-c1cccc2ccccc12` is 13.5

Field hERG current change (%, negative = inhibition) at 10uM (entry `CC1(C)CC(=O)c2cn3nc(C(F)(F)F)nc3nc2C1` ) reads 4.21

Query `N/C(=N\OC(=O)N1CCOCC1)c1ccc(Br)cc1` yields hERG current change (%, negative = inhibition) at 10uM of 17.6

The recorded hERG current change (%, negative = inhibition) at 10uM for `O=C(NC1CCN(C(=O)c2cccc([N+](=O)[O-])c2)CC1)c1ccccc1` is -32.8

Reported hERG current change (%, negative = inhibition) at 10uM of `O=C(NC1CCN(Cc2ccccc2)CC1)C1CCN(S(=O)(=O)c2cccc([N+](=O)[O-])c2)CC1` : -8.03

The molecule identified as `Cc1nnc2ccc(-c3ccc(NS(=O)(=O)c4ccc(F)cc4F)cc3)nn12` registered its hERG current change (%, negative = inhibition) at 10uM at -25.2

Form: molecule = `CNC(=O)c1csc(Cc2c(Cl)sc3ccc(Cl)cc23)n1` ; hERG current change (%, negative = inhibition) at 10uM = -2.3

What the record says about `CNC(=O)NNC(=O)c1csc(Cc2c(Cl)sc3ccc(Cl)cc23)n1` : hERG current change (%, negative = inhibition) at 10uM is -52.1

molecule `CC1CCN(CC(=O)Nc2cccc([N+](=O)[O-])c2)CC1` , hERG current change (%, negative = inhibition) at 10uM observed: 3.53

Summary for this molecule, `CCOc1ccc(C(=O)NC2CCN(CC(=O)NCc3ccccc3)CC2)cc1` : hERG current change (%, negative = inhibition) at 10uM is -29.3
